Ref: PubChem BioAssay (NCI)

tested on: UO-31 renal; test: NCI tumour cell line growth inhibition, 48 h
Listing: GI50 of selected molecules

# molecule, studySystem, GI50
measured = [
    ("O=C1C(=O)/C(=C/c2ccccc2)CCCCCC/C1=C/c1ccccc1", "UO-31 renal", "1.89 µM"),
    ("C=C(C)[C@@H]1/C=C(/C(C)C)CC[C@@]2(C)OC2CC[C@H](C)CC1=O (some centres undefined)", "UO-31 renal", "23.2 µM"),
    ("CN(C)CCNc1c2c(c(NCCN(C)C)c3c(CN(C)C)c[nH]c13)C(=O)c1ccccc1C2=O", "UO-31 renal", "3.76 µM"),
    ("COc1ccc(-c2cc(C(=O)N3N=C(c4ccc(N)cc4)CC3c3ccc(Cl)cc3)c3ccccc3n2)cc1 (centres undefined)", "UO-31 renal", "1.55 µM"),
    ("Oc1ccc(OCCOc2ccc(O)cc2)cc1", "UO-31 renal", "1.47 µM"),
    ("CSc1ccc(C2=NN(c3ccccc3)C(c3ccc(-c4cc(Cl)c(Cl)cc4Cl)o3)C2)cc1 (centres undefined)", "UO-31 renal", "> 100 µM"),
    ("CN(c1ccc(Cl)c(Cl)c1)c1cnc2cc(N)cc(N)c2n1", "UO-31 renal", "3.4 µM"),
    ("CO[C@H]1/C=C/[C@@](C)(O)/C=C/C(=O)O[C@H](C)[C@@H](C)CC/C=C/1C", "UO-31 renal", "8.38 µM"),
    ("C1C[OH+]CCNCC[OH+]CC[OH+]CCN1.O.[Cl-].[Pt+4]", "UO-31 renal", "> 100 µM"),
]

###

Listing: TGI of selected compounds
system: SN12C renal; experiment: NCI tumour cell line growth inhibition, 48 h

# compound, TGI
data = [
    ("CC1(C)COC(c2ccccc2-c2ccccc2)=N1", "> 100 µM"),
    ("Cn1c(=O)c2[nH]c(CCCCc3nc4ccccc4[nH]3)nc2n(C)c1=O", "> 100 µM"),
    ("COc1cccc(-c2nc(-c3cnccn3)n(C3OC(CO)C(O)C3O)n2)c1 (configuration not stated)", "> 100 µM"),
    ("CC(=O)Nc1cccc2[nH]c3ccccc3c(=O)c12", "> 100 µM"),
    ("NCCCNc1nc2ccccc2c2c(=O)c3cccc(F)c3sc12", "2.7 µM"),
    ("CCOC(=O)CCC(C(=O)OCC)n1nc2ccc(Nc3c(C)[n+]([O-])c4ccc(Cl)cc4[n+]3[O-])cc2n1 (configuration not stated)", "48.4 µM"),
    ("CN1N(c2ccccc2)C(=O)C2=NC=C(C(=O)c3ccccc3)C(=N)C21C (configuration not stated)", "> 100 µM"),
    ("Cc1cc(=O)[nH]c(-n2[nH]c3c(c2=O)CCCC3)n1", "> 100 µM"),
    ("CC[C@@]1(O)C(=O)OCc2c1cc1n(c2=O)Cc2c-1nc1ccccc1c2/C=N/NC(=O)C[N+](C)(C)C", "> 100 µM"),
    ("COC(=O)CCCC(=O)C1=Nc2ccccc2CN(c2ccc(Cl)cc2)N1", "> 100 µM"),
    ("O=C(CCCBr)Nc1ccccc1C#C/C=C\\C#Cc1ccccc1C(F)(F)F", "29.9 µM"),
    ("Nc1nc(SCc2ccccc2)nc2[nH]ncc12", "31.3 µM"),
    ("COc1cc(C=C2c3ccccc3C(=O)c3ccccc32)ccc1OCCCCOc1cc2c(cc1OC)C(=O)N1CCCC1C=N2 (configuration not stated)", "1.88 µM"),
    ("O=C(O)/C(=C/c1ccccc1)c1ccccc1", "> 100 µM"),
    ("N#CC1=C(N)OC2=C(CCCc3ccc([N+](=O)[O-])cc32)C1c1ccccc1 (configuration not stated)", "20.4 µM"),
    ("COc1cc(C(=O)Nc2cccc3ccccc23)c(Br)c(OC)c1OC", "> 100 µM"),
    ("CN(C)C1C(CO)OC(n2cnc3c(N)ncnc32)C1O (configuration not stated)", "> 100 µM"),
    ("Cc1cccc(NS(=O)(=O)c2ccc3c(c2)OCCOCCOCCOCCO3)c1", "> 100 µM"),
    ("COc1cc2c(cc1OCCCCCN1C(=O)c3cccc4cccc(c34)C1=O)N=C[C@@H]1CCCN1C2=O", "9.62 µM"),
    ("FC(F)(F)c1cccc(C=NC23CC4CC(CC(C4)C2)C3)c1", "> 100 µM"),
    ("O=[N+]([O-])c1cc([N+](=O)[O-])c(NN=C(c2ccc(O)cc2)c2ccc(O)cc2)cc1Cl", "3.36 µM"),
    ("CCCCCCCCCCCC(=O)N(CCCCCCCCCCC(=O)O)CC(O)C(O)C(OC1OC(CO)C(O)C(O)C1O)C(O)CO (configuration not stated)", "> 100 µM"),
    ("COc1ccc(P2(=S)OCCOP(=S)(c3ccc(OC)cc3)S2)cc1 (configuration not stated)", "33.9 µM"),
    ("CNc1ccccc1S(=O)(=O)c1ccccc1[N+](=O)[O-]", "> 100 µM"),
    ("O=c1c(Nc2ccccc2)cn(CCOc2ccccc2)c(=O)n1CCOc1ccccc1", "> 100 µM"),
    ("COc1cc(Nc2cc(O)c3c(=O)cc(-c4ccccc4)oc3c2)cc(OC)c1", "75.5 µM"),
    ("Cc1cc(C)nc(NS(=O)(=O)c2ccc(NC(=O)c3cccc4c(Nc5ccc(S(=O)(=O)N=C(N)N)cc5)c5ccccc5nc34)cc2)n1", "> 100 µM"),
    ("C(=N\\c1cc2cc(Sc3ccccc3)ccc2[nH]1)/c1ccccc1", "> 12.5 µM"),
    ("COc1cc(C2CC(c3ccc(SC)cc3)=NN2C(C)=O)cc(OC)c1OC (configuration not stated)", "> 100 µM"),
    ("Clc1ccc(-c2nc3ccc(Cl)cc3[nH]2)cc1", "86.6 µM"),
    ("O=c1[nH]cnc2c1ncn2C1CCC(CO)O1 (configuration not stated)", "> 1000 µM"),
    ("C=CCN1C(=O)CNC1=S", "> 100 µM"),
    ("C=CCOC1=C(OC(C)=O)C(=O)OC1C1COC(C)(C)O1 (configuration not stated)", "> 68.7 µM"),
    ("CC1COC(c2cn[nH]c2C(N)=O)C1O (configuration not stated)", "> 100 µM"),
    ("CCOC(=O)C1=C(C#N)S(=O)(=O)c2c(oc(C)c2C)N1", "> 100 µM"),
    ("CCOC(=O)NC(=O)c1cn(CCN2CCN(C(=O)CCCCCCCCCCNc3ncnc4c3ncn4C3OC(CO)C(O)C3O)CC2)c(=O)[nH]c1=O (configuration not stated)", "> 100 µM"),
    ("CC(C)NC(=O)OCc1c(COC(=O)NC(C)C)c(-c2cc[n+](COC(=O)CC(C)(C)C)cc2)n2c1CCC2", "> 100 µM"),
    ("Cn1c([N+](=O)[O-])cnc1/C=C1\\Oc2ccc(Br)cc2C1=O", "4.16 µM"),
    ("Cn1cc(-c2csc(-c3c[nH]c4ccc(F)cc34)n2)c2cccnc21", "> 100 µM"),
    ("CCn1cc(C(=O)O)c(=O)c2ccc(C)nc21", "> 100 µM"),
    ("Cc1ccc(S(=O)(=O)OCC23CCC(C2)C2CC23)cc1 (configuration not stated)", "> 100 µM"),
    ("O=c1[nH]c2cc([N+](=O)[O-])ccc2nc1/C(=N/Nc1ccccc1)C(O)c1ccc(Cl)cc1Cl (configuration not stated)", "> 100 µM"),
]

###

tested on: SW-620 colon; test: NCI tumour cell line growth inhibition, 48 h
propertyLabel: GI50

# entrySmiles, result
measured = [
    ("Oc1ccc(OCCOc2ccc(O)cc2)cc1", "3.68 µM"),
    ("COc1cc(/C=C/c2cc(/C=C/c3ccc(O)c(OC)c3)n(C(=O)Cc3ccccc3)n2)ccc1O", "0.684 µM"),
    ("COc1cc2c(Oc3ccc4[nH]c(C)cc4c3F)ncnc2cc1OCCCN1CCCC1", "3.77 µM"),
]

###

test system: HCT-15 colon; assay: NCI tumour cell line growth inhibition, 48 h
propertyLabel: GI50

# entrySmiles, propertyLabel, result
data = [
    ("COc1cc(/C=C/c2cc(/C=C/c3ccc(O)c(OC)c3)n(C(N)=O)n2)ccc1O", "GI50", "312 nM"),
    ("Cn1cc(-c2csc(-c3c[nH]c4ccc(F)cc34)n2)c2cccnc21", "GI50", "737 nM"),
    ("COc1cc(/C=C/[N+](=O)[O-])c([N+](=O)[O-])cc1OC", "GI50", "1330 nM"),
    ("COc1cc(C(=O)/C=C/c2c(-c3cccs3)nc3sccn23)cc(OC)c1OC", "GI50", "839 nM"),
    ("O=C(CCCBr)Nc1ccccc1C#C/C=C\\C#Cc1ccccc1C(F)(F)F", "GI50", "20600 nM"),
]
